# key: entry, value: Neutralization PSV IC50
Target: VP1 capsid protein on BKV pseudovirions of genotype Ia (BK-D; JF894228) (BK virus genotype Ia (BK-D))
Assay: cell-based or functional assay
Reply numerically in µg/mL, unit not repeated.

• antibody C11P1 (antibody, V domains shown) VH: QVQLQESGPGLVKPSETLSLTCTVSGGSIRNSYWSWIRQPPGKGLEWIGYIYYTGTTNSNPSLKSRATISVHMSQNQISLKLNSVTPADTAVYYCAQGGGSGDLHYWGQGTLVTVSS VL: NFMLTQPASVSGSPGQSITISCTGTRSDVGGYNYVSWYQQHPGKAPKLMIYDISSRPSGVSNRFSASKSGNTASLTISGLQAEDEADYYCISFATGYTWVFGGGTRLTVL = 0.351

Let's switch to this binder now.
Query: Consider the binder antibody C10P7 (antibody, V domains shown) VH: QVQLVQSGSEVKKPGTSVKVSCKASGETYVGHSISWVRQAPGAGLEWMGWISLHNGNVKYAQKLQGRVTMTTDTSTITAYMELRNLTSDDTAVYYCARVPMKIYGVIVFGEYYYDQLDVWGQGTTVTVSS VL: QSALTQPPSASGSPGQSVTISCTGTGSDVGGYNYVSWYQQHPGKAPKLMIYEVSKRPSGVPDRFSGSKSGNTASLTVSGLQAEDEADYYCSSYAGSKVVFGGGTKLTVL and give its measured Neutralization PSV IC50.
Response: 6.56

Entry source: patent EP4659811A1
